Experiment: Antioxidant activity assessed as inhibition of NBT reduction at 40 ug/ml
Assay type: functional
attribute.measured: inhibition (%)
Entry rule: numbers only, all in %.

Illustrative cases are given below, each with its answer.
Cc1cc(O)c(C(C)C)cc1-c1cc(-c2cccs2)c(C#N)c(=O)[nH]1 = 41
Cc1cc(O)c(C(C)C)cc1-c1cc(-c2ccco2)c(C#N)c(=O)[nH]1 = 42.5
COc1cc(-c2cc(-c3cc(C(C)C)c(O)cc3C)[nH]c(=O)c2C#N)ccc1O = 32

# input for lookup
Task item: # get_value(readout='inhibition', item= "Cc1cc(O)c(C(C)C)cc1-c1cc(-c2ccccc2)c(C#N)c(=O)[nH]1" )
Reply: 29

====

Reported inhibition values are given for each entry in this list.
Assay: Antioxidant activity assessed as inhibition of NBT reduction at 60 ug/ml
Format: functional
Enter your answer as a number in %; do not include the unit.

// known answers, use as guide
Cc1cc(O)c(C(C)C)cc1-c1cc(-c2ccco2)c(C#N)c(=O)[nH]1 = 55.2
Cc1cc(O)c(C(C)C)cc1-c1cc(-c2cccs2)c(C#N)c(=O)[nH]1 = 54.3
COc1cc(-c2cc(-c3cc(C(C)C)c(O)cc3C)[nH]c(=O)c2C#N)cc(OC)c1OC = 71

Task item: What value of inhibition has been reported for the following compound? "COc1ccc(-c2cc(-c3cc(C(C)C)c(O)cc3C)[nH]c(=O)c2C#N)c(OC)c1"
Reply: 48.5

====

Assay: Antioxidant activity assessed as inhibition of NBT reduction at 60 ug/ml
Assay type: functional
Classification field: T = inhibition at or over 50%; F = inhibition under 50%.

Solved cases below.
Cc1cc(O)c(C(C)C)cc1-c1cc(-c2ccc(N(C)C)cc2)c(C#N)c(=O)[nH]1 = T
Cc1cc(O)c(C(C)C)cc1-c1cc(-c2ccccc2Cl)c(C#N)c(=O)[nH]1 = F
COc1ccc(-c2cc(-c3cc(C(C)C)c(O)cc3C)[nH]c(=O)c2C#N)cc1OC = T
Cc1ccc(C(C)C)c(O)c1 [THYMOL] = F

Moving on to the next compound.
Task item: Given "COc1cc(OC)c(-c2cc(-c3cc(C(C)C)c(O)cc3C)[nH]c(=O)c2C#N)c(OC)c1" , state whether its inhibition is at least 50%.
Reply: T

====

Listed next: entries and their corresponding inhibition.
Test: Antioxidant activity assessed as inhibition of NBT reduction at 20 ug/ml
Format: functional
Numbers only; they are read as %.

COc1cc(-c2cc(-c3cc(C(C)C)c(O)cc3C)[nH]c(=O)c2C#N)cc(OC)c1OC = 35
Cc1ccc(C(C)C)c(O)c1 = 10
Cc1cc(O)c(C(C)C)cc1-c1cc(-c2ccccc2Cl)c(C#N)c(=O)[nH]1 = 12
Cc1cc(O)c(C(C)C)cc1-c1cc(-c2cccs2)c(C#N)c(=O)[nH]1 = 26

Alright, here's another molecule for you.
Task item: So what does the record say about inhibition for "Cc1cc(O)c(C(C)C)cc1-c1cc(-c2ccco2)c(C#N)c(=O)[nH]1" ?
Reply: 26

====

System: Talaromyces marneffei
Test: Antimicrobial activity against Talaromyces marneffei at 100 ppm after 48 hr by agar well diffusion method
Format: functional
Conditions: read-out: IZ
attribute.measured: zone of inhibition at 100 ppm (mm)
# unit: mm | format: bare number

COc1cccc(-c2cc(-c3cc(C(C)C)c(O)cc3C)[nH]c(=O)c2C#N)c1 = 11
Cc1ccc(C(C)C)c(O)c1 = 7
Cc1cc(O)c(C(C)C)cc1-c1cc(-c2cccs2)c(C#N)c(=O)[nH]1 = 11
COc1ccc(-c2cc(-c3cc(C(C)C)c(O)cc3C)[nH]c(=O)c2C#N)cc1 = 10
Cc1cc(O)c(C(C)C)cc1-c1cc(-c2ccco2)c(C#N)c(=O)[nH]1 = 9
Cc1cc(O)c(C(C)C)cc1-c1cc(-c2ccccc2[N+](=O)[O-])c(C#N)c(=O)[nH]1 = 11
COc1cc(-c2cc(-c3cc(C(C)C)c(O)cc3C)[nH]c(=O)c2C#N)ccc1O = 11
Cc1cc(O)c(C(C)C)cc1-c1cc(-c2ccccc2Cl)c(C#N)c(=O)[nH]1 = 12
COc1ccc(-c2cc(-c3cc(C(C)C)c(O)cc3C)[nH]c(=O)c2C#N)c(OC)c1 = 10
Cc1cc(O)c(C(C)C)cc1-c1cc(-c2ccc(N(C)C)cc2)c(C#N)c(=O)[nH]1 = 13

Task item: Consider the compound "Cc1cc(O)c(C(C)C)cc1-c1cc(-c2ccccc2)c(C#N)c(=O)[nH]1" and give its measured zone of inhibition at 100 ppm.
Reply: 9

Task item: Can you share its zone of inhibition at 100 ppm? I mean this compound: "COc1ccc(-c2cc(-c3cc(C(C)C)c(O)cc3C)[nH]c(=O)c2C#N)cc1OC"
Reply: 10

====

Assay: Antioxidant activity assessed as inhibition of NBT reduction at 40 ug/ml
Assay type: functional
attribute.measured: inhibition (%)
Write the number in % without appending the unit.

# example entries with known answers
COc1ccc(-c2cc(-c3cc(C(C)C)c(O)cc3C)[nH]c(=O)c2C#N)c(OC)c1 = 37.5
COc1cc(-c2cc(-c3cc(C(C)C)c(O)cc3C)[nH]c(=O)c2C#N)cc(OC)c1OC = 55
COc1ccc(-c2cc(-c3cc(C(C)C)c(O)cc3C)[nH]c(=O)c2C#N)cc1 = 35
Cc1cc(O)c(C(C)C)cc1-c1cc(-c2ccc(N(C)C)cc2)c(C#N)c(=O)[nH]1 = 43

Let us examine a further case.
Task item: Fill blank: measured inhibition of the molecule "Cc1cc(O)c(C(C)C)cc1-c1cc(-c2ccccc2Cl)c(C#N)c(=O)[nH]1" is ____.
Reply: 20

====

Assay: Antioxidant activity assessed as inhibition of NBT reduction at 20 ug/ml
Format: functional
attribute.measured: inhibition

Consider the worked cases shown below.
Cc1cc(O)c(C(C)C)cc1-c1cc(-c2ccc(N(C)C)cc2)c(C#N)c(=O)[nH]1 = 30%
COc1ccc(-c2cc(-c3cc(C(C)C)c(O)cc3C)[nH]c(=O)c2C#N)cc1OC = 25%
COc1cccc(-c2cc(-c3cc(C(C)C)c(O)cc3C)[nH]c(=O)c2C#N)c1 = 22%
COc1ccc(-c2cc(-c3cc(C(C)C)c(O)cc3C)[nH]c(=O)c2C#N)cc1 = 24%
Cc1cc(O)c(C(C)C)cc1-c1cc(-c2ccccc2[N+](=O)[O-])c(C#N)c(=O)[nH]1 = 20%

Task item: Look up inhibition for this compound: "COc1cc(-c2cc(-c3cc(C(C)C)c(O)cc3C)[nH]c(=O)c2C#N)ccc1O"
Reply: 26%

Task item: Consider the compound "COc1cc(OC)c(-c2cc(-c3cc(C(C)C)c(O)cc3C)[nH]c(=O)c2C#N)c(OC)c1" and give its measured inhibition.
Reply: 32%

Task item: So what does the record say about inhibition for "Cc1cc(O)c(C(C)C)cc1-c1cc(-c2ccccc2)c(C#N)c(=O)[nH]1" ?
Reply: 22%

Task item: What value of inhibition has been recorded for this entry: "COc1ccc(-c2cc(-c3cc(C(C)C)c(O)cc3C)[nH]c(=O)c2C#N)c(OC)c1"
Reply: 27%

====

Experiment: Antioxidant activity assessed as inhibition of NBT reduction at 40 ug/ml
Assay type: functional
The following molecules are shown together with reported inhibition values.
// note: answer is a bare numeric in %

COc1cc(OC)c(-c2cc(-c3cc(C(C)C)c(O)cc3C)[nH]c(=O)c2C#N)c(OC)c1 = 52.6
Cc1cc(O)c(C(C)C)cc1-c1cc(-c2ccccc2[N+](=O)[O-])c(C#N)c(=O)[nH]1 = 25.5
COc1cccc(-c2cc(-c3cc(C(C)C)c(O)cc3C)[nH]c(=O)c2C#N)c1 = 30
COc1ccc(-c2cc(-c3cc(C(C)C)c(O)cc3C)[nH]c(=O)c2C#N)cc1OC = 44

In the following, a different molecule is considered.
Task item: Sample "Cc1ccc(C(C)C)c(O)c1" — what was its inhibition?
Reply: 16

====

Experiment: Antioxidant activity assessed as inhibition of NBT reduction at 60 ug/ml
Assay type: functional
attribute.measured: inhibition

Known inhibition results, listed for orientation:
COc1cccc(-c2cc(-c3cc(C(C)C)c(O)cc3C)[nH]c(=O)c2C#N)c1 = 38%
COc1ccc(-c2cc(-c3cc(C(C)C)c(O)cc3C)[nH]c(=O)c2C#N)cc1 = 43%
Cc1cc(O)c(C(C)C)cc1-c1cc(-c2ccccc2[N+](=O)[O-])c(C#N)c(=O)[nH]1 = 31%
COc1cc(-c2cc(-c3cc(C(C)C)c(O)cc3C)[nH]c(=O)c2C#N)ccc1O = 37.5%

Task item: Name the reported inhibition value associated with the compound "Cc1cc(O)c(C(C)C)cc1-c1cc(-c2ccccc2)c(C#N)c(=O)[nH]1"
Reply: 34%

Each recorded value in this set is attributed to ChEMBL document CHEMBL3044545.
